# SUBJECT_OF_TEST: NK1 (Homo sapiens)
# Sequence (P25103 whole entry): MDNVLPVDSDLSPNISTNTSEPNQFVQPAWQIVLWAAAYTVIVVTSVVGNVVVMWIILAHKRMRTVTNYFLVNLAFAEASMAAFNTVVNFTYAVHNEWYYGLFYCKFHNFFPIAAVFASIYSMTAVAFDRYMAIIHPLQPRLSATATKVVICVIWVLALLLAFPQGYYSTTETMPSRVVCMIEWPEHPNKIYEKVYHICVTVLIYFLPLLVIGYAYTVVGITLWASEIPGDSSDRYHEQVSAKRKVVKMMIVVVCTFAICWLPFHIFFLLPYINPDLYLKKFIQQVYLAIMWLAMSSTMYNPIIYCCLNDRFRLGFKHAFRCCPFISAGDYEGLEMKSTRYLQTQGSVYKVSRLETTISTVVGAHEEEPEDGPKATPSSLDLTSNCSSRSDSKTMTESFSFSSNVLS
# EXPERIMENT_DESCRIPTION: Signal transduction (ST), intracellular Ca++ (FLIPR), NK1 antagonistic activity
# Assay type: cell-based
# STUDY_CONDITIONS: read-out: pIC50 NK1 (converted)
READOUT_TYPE: IC50 (nM)

input: Param readout= IC50; system= NK1 (Homo sapiens); entry= O=C(c1cnccn1)N1CCC(N2CCN(C3CCN(C(=O)c4cc(C(F)(F)F)cc(C(F)(F)F)c4)C(Cc4ccc(F)c(F)c4)C3)CC2)C1 (single isomer, unassigned) [Compound 259] ; returns value.
output: 12.6

1: O=C(c1ccco1)N1CC[C@H](N2CCN([C@H]3CCN(C(=O)c4cc(C(F)(F)F)cc(C(F)(F)F)c4)[C@H](Cc4ccc(Cl)c(Cl)c4)C3)CC2)C1 [Compound 317]
2: O=C(C1CCOC1)N1CCC(N2CCN(C3CCN(C(=O)c4cc(C(F)(F)F)cc(C(F)(F)F)c4)C(Cc4ccc(Cl)c(Cl)c4)C3)CC2)C1 (single isomer, unassigned) [Compound 331]
3: O=C(c1ccsc1)N1CCC(N2CCN(C3CCN(C(=O)c4cc(C(F)(F)F)cc(C(F)(F)F)c4)C(Cc4ccccc4)C3)CC2)C1 (single isomer, unassigned) [Compound 39]
4: Cc1ccccc1C(=O)N1CCC(N2CCN([C@H]3CCN(C(=O)c4cc(C(F)(F)F)cc(C(F)(F)F)c4)[C@H](Cc4ccccc4)C3)CC2)C1 (some centres unmarked) [Compound 13]
input: Please give the order of these compounds when sorted by IC50, largest value leading. Give the order by naming the labels one after another as requested.
output: 4, 3, 1, 2
(4: 25.1 nM, 3: 15.8 nM, 1: 10 nM, 2: 3.16 nM)

###

# SUBJECT_OF_TEST: NK2 (Homo sapiens, UniProt P21452)
# Sequence (P21452 whole entry): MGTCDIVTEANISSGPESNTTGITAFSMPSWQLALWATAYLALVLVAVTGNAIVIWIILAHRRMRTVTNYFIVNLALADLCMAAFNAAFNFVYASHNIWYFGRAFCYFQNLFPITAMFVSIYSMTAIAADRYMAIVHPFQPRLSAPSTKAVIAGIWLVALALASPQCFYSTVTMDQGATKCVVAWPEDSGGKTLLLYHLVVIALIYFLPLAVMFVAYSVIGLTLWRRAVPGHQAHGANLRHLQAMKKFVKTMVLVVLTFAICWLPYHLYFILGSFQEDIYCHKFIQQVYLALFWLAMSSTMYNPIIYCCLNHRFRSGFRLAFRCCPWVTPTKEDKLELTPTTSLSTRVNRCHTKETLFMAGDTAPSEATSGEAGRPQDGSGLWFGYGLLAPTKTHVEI
# EXPERIMENT_DESCRIPTION: Signal transduction (ST), intracellular Ca++ (FLIPR), NK2
# Type: cell-based
# STUDY_CONDITIONS: read-out: pIC50 NK2 (converted)
READOUT_TYPE: IC50 (nM)

input: Data request, read-out IC50, for O=C(c1ccco1)N1CC[C@@H](N2CCN([C@H]3CCN(C(=O)c4cc(C(F)(F)F)cc(C(F)(F)F)c4)[C@H](Cc4ccc(Cl)c(Cl)c4)C3)CC2)C1 [Compound 267]
output: 631

P: O=C(c1cc(C(F)(F)F)cc(C(F)(F)F)c1)N1CC[C@H](N2CCN(C3CCN(S(=O)(=O)c4sccc4COCc4ccccc4)C3)CC2)C[C@H]1Cc1ccccc1 (some centres unmarked) [Compound 292]
Q: CC1(C)OCC(CNC(=NC#N)N2CCC(N3CCN(C4CCN(C(=O)c5cc(C(F)(F)F)cc(C(F)(F)F)c5)C(Cc5ccccc5)C4)CC3)C2)O1 (centres unmarked) [Compound 370]
R: O=C(c1cccs1)N1CC[C@H](N2CCN([C@H]3CCN(C(=O)c4cc(C(F)(F)F)cc(C(F)(F)F)c4)[C@H](Cc4ccc(Cl)c(Cl)c4)C3)CC2)C1 [Compound 318]
S: CN(C(=O)OC(C)(C)C)C(C)(C)C(=O)N1CCC(N2CCN(C3CCN(C(=O)c4cc(C(F)(F)F)cc(C(F)(F)F)c4)C(Cc4ccccc4)C3)CC2)C1 (centres unmarked) [Compound 304]
input: // sort entries: IC50, high to low Write the labels, ordered according to the request.
output: Q, S, P, R
